Target: rat cloned D3 receptor (Rattus norvegicus)
Construct: expressed in transfected cells
Sequence (P19020 whole entry): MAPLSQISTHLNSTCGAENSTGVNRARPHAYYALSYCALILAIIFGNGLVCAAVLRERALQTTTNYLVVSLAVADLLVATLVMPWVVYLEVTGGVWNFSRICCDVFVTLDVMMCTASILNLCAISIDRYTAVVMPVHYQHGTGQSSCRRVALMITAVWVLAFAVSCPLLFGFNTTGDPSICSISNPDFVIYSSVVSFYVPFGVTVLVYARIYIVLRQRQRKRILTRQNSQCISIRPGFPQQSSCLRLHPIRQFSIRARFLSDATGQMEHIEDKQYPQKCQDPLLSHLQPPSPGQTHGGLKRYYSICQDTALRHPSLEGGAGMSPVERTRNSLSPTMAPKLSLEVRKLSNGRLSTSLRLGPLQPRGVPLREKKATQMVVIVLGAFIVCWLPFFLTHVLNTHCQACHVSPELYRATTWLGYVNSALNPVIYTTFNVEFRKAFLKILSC
Assay: Binding to rat cloned D3 receptor using 1.6 nM [3H]-raclopride
From the text: It is herein submitted that the short-term use of tracer doses of a compound of the invention, wherein R^1 is C1-6alkyl in which one hydrogen atom on the alkyl chain in replaced with radioactive fluoro, in radioimaging procedures will be of diagnostic and therapeutic importance in dopamine-related disorders.
Structures can show the parent of a compound that is named as a salt.
List of log10 Kd values.
Give log10 of Kd, with Kd taken in nM.

Past entries and their recorded results:
Noted log10 Kd for Oc1ccc2c(c1)[C@H]1OCCN(CCCCCCF)[C@@H]1CC2 [(+)-F-Hex-HNO, Hydrochloride] , tested on rat cloned D3 receptor (Rattus norvegicus): 1.65

Noted log10 Kd for Oc1ccc2c(c1)[C@H]1OCCN(CCCCCF)[C@@H]1CC2 [(+)-F-Pent-HNO, Hydrochloride] , tested on rat cloned D3 receptor (Rattus norvegicus): 1.73

Noted log10 Kd for Oc1ccc2c(c1)[C@H]1OCCN(CCCCF)[C@@H]1CC2 [(+)-F-But-HNO, Hydrochloride] , tested on rat cloned D3 receptor (Rattus norvegicus): 1.53

Noted log10 Kd for Oc1ccc2c(c1)[C@H]1OCCN(CCF)[C@@H]1CC2 [(+)-F-EHNO, Hydrochloride] , tested on rat cloned D3 receptor (Rattus norvegicus): 0.23

The record that follows has no log10 Kd shown yet.
Noted log10 Kd for Oc1ccc2c(c1)[C@H]1OCCN(CCCF)[C@@H]1CC2 [(+)-F-PHNO, Hydrochloride] , tested on rat cloned D3 receptor (Rattus norvegicus): -0.42
